test system: HSL; assay: HSL mRNA expression in adipocytes (real-time PCR); type: cell-based, human; conditions: Table 18; differentiating adipocytes; control = treatment with ISIS 342673
In the oligonucleotide strings, read from the 5' end, every base follows the letter of its sugar. An asterisk marks phosphorothioate; unmarked linkages are phosphodiester. Other units and linkages are bracketed, terminal groups are in braces. A string of capitals states the bases alone. e = 2'-O-(2-methoxyethyl) (MOE); [5mC] = 5-methylcytosine
measured.attribute: HSL mRNA

I'm hoping you can list HSL mRNA for every substance here, please.
1. 328105 (antisense e[5mC]*e[5mC]*eT*e[5mC]*eA*eA*eT*eT*eA*eT*eT*eG*eG*eA*eA*eA*eT*e[5mC]*eA*e[5mC]*eA) [compound 328105]
2. 327912 (antisense eA*eA*e[5mC]*eT*eA*eT*eA*e[5mC]*eA*eA*eT*e[5mC]*eT*eA*e[5mC]*eT*eA*e[5mC]*e[5mC]*eT*e[5mC]*eA) [compound 327912]
3. 342673 (antisense eA*eG*eA*e[5mC]*eT*eA*eG*e[5mC]*eG*eG*eT*eA*eT*e[5mC]*eT*eT*eT*eA*eT*e[5mC]*e[5mC]*e[5mC]) [compound 342673]
4. 328107 (antisense e[5mC]*eT*eG*eT*eG*eA*e[5mC]*eT*eT*e[5mC]*eT*e[5mC]*eT*eA*eT*e[5mC]*eT*eG*e[5mC]*e[5mC]*eT) [compound 328107]
5. 328110 (antisense eG*eA*eT*eA*eA*eA*eG*e[5mC]*e[5mC]*eA*eA*eT*eA*eA*eA*e[5mC]*eT*eG*eT*e[5mC]*eA) [compound 328110]

Given back:
94.2 percentage of control
90.6 percentage of control
100 percentage of control
61.0 percentage of control
91.0 percentage of control

Required: HSL mRNA, one value per substance below.
1. 341805 (antisense ACCCTTATCAGTTCTCCGTCCA; all 2'-MOE, all phosphorothioate, methylation of C not given here) [compound 341805]
2. 328109 (antisense eA*eA*eA*eG*eA*eA*eG*eT*eA*eT*eA*eT*eG*e[5mC]*eA*eT*eA*eG*eG*eA*eA) [compound 328109]
3. 328099 (antisense eA*eA*eG*eA*eA*e[5mC]*eA*eT*eT*eA*eA*eG*e[5mC]*eA*eT*e[5mC]*eT*eG*eA*e[5mC]*eA) [compound 328099]
4. 328114 (antisense eA*eA*eT*e[5mC]*eT*e[5mC]*eA*eT*eT*eT*eT*e[5mC]*eA*eT*eA*e[5mC]*eT*eT*eG*e[5mC]*eA) [compound 328114]
5. 327969 (antisense eT*eG*eT*eG*eA*eG*eT*eT*e[5mC]*eT*eA*e[5mC]*e[5mC]*eA*eT*eT*eG*e[5mC]*e[5mC]*eA*eA*eA) [compound 327969]
6. 328113 (antisense e[5mC]*eA*eA*eA*eA*eA*eT*eT*eA*eT*e[5mC]*eA*eG*e[5mC]*e[5mC]*eA*eG*eT*eT*eT*eA) [compound 328113]

Given back:
1. 81.8 percentage of control
2. 86.9 percentage of control
3. 88.4 percentage of control
4. 93.3 percentage of control
5. 66.4 percentage of control
6. 90.6 percentage of control

The values you see were collected from patent US8178506B2.
